Each entry below carries its reported OD450.
Target: T1, Human CD19-his protein (human, UniProt P15391 20-291)
T1 construct: bought protein; also called human CD19 protein; recombinant human CD19-His; not shown: His tag
T1 sequence (looked up): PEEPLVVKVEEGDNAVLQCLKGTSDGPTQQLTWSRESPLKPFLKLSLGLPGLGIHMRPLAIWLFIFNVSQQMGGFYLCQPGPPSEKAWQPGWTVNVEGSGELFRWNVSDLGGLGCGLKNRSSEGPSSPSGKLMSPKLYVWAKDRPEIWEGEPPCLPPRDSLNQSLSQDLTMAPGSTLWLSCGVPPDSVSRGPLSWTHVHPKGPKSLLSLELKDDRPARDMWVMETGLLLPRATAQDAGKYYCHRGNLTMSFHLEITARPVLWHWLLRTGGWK
Experiment: ELISA, antibody at 0.0001 nM
Form: value (number only, do not type unit).

F4.191.1 (antibody, human IgG1, V domains shown, human-murine chimeric antibody, human IgG1) VH: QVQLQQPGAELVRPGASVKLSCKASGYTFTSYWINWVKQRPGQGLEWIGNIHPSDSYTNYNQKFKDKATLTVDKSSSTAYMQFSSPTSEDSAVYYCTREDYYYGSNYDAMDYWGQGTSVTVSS VL: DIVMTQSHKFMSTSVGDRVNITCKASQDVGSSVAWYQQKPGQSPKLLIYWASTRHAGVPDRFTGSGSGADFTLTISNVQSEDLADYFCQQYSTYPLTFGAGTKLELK | 0.05
F4.125.12 (antibody, human IgG1, V domains shown, human-murine chimeric antibody, human IgG1) VH: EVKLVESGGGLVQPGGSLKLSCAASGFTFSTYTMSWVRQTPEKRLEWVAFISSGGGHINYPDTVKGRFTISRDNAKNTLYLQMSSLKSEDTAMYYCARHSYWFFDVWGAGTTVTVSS VL: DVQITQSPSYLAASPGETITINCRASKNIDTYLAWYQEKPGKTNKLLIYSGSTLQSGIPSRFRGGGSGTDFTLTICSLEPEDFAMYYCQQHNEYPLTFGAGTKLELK | 0.06
F4.78.1 (antibody, human IgG1, V domains shown, human-murine chimeric antibody, human IgG1) VH: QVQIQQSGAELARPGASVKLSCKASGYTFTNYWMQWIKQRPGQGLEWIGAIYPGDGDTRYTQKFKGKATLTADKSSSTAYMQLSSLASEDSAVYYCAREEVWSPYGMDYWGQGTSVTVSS VL: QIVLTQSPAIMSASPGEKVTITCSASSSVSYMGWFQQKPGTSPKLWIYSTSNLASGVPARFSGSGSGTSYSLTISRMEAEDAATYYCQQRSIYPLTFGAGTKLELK | 0.06
F4.35.5 (antibody, human IgG1, V domains shown, human-murine chimeric antibody, human IgG1) VH: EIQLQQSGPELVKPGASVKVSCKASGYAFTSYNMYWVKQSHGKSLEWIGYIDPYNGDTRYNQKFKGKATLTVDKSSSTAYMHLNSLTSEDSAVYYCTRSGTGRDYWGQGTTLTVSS VL: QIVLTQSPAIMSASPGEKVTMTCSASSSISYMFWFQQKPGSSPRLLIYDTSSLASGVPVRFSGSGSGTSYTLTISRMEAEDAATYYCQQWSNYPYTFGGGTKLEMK | 0.05

Request: Name the recorded OD450 for F5.11.2 (antibody, human IgG1, V domains shown, human-murine chimeric antibody, human IgG1) VH: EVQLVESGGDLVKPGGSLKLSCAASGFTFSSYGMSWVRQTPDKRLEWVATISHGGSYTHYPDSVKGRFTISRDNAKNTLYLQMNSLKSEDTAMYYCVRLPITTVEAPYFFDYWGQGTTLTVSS VL: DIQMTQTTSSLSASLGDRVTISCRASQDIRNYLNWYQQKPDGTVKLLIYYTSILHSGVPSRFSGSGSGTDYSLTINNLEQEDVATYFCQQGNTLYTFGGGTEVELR .
Response: 0.06

Request: Name the recorded OD450 for F4.152.7 (antibody, human IgG1, V domains shown, human-murine chimeric antibody, human IgG1) VH: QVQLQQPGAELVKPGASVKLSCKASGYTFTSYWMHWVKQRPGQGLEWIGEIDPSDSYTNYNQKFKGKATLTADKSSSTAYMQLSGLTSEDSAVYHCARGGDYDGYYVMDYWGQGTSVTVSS VL: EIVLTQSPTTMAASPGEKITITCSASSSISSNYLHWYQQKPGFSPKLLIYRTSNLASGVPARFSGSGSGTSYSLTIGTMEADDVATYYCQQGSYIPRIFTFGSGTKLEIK .
Response: 0.05

Request: Name the recorded OD450 for F6.12.12 (antibody, human IgG1, V domains shown, human-murine chimeric antibody, human IgG1) VH: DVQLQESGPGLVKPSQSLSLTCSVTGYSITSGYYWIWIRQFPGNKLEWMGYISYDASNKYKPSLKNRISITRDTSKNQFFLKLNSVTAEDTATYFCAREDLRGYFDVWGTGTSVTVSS VL: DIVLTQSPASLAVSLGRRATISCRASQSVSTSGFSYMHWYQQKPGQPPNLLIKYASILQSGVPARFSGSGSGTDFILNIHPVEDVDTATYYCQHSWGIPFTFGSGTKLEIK .
Response: 0.05

Request: Name the recorded OD450 for F3.3.10 (antibody, human IgG1, V domains shown, human-murine chimeric antibody, human IgG1) VH: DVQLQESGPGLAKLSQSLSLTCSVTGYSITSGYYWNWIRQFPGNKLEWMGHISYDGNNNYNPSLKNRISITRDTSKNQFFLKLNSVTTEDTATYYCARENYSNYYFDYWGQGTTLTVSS VL: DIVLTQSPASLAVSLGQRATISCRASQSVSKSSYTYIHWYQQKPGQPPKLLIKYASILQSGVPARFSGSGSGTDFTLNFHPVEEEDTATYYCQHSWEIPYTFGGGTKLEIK .
Response: 0.05

Request: Name the recorded OD450 for F3.133.14 (antibody, human IgG1, V domains shown, human-murine chimeric antibody, human IgG1) VH: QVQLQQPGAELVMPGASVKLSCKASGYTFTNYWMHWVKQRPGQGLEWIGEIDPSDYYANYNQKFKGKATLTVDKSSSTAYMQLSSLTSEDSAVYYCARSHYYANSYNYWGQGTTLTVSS VL: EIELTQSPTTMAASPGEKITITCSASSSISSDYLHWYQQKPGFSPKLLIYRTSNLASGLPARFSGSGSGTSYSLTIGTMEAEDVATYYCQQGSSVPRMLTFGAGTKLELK .
Response: 0.05

Request: Name the recorded OD450 for F4.58.6 (antibody, human IgG1, V domains shown, human-murine chimeric antibody, human IgG1) VH: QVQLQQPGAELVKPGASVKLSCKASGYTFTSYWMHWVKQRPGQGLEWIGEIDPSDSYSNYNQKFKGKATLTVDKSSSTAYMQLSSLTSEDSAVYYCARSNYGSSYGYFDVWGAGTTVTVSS VL: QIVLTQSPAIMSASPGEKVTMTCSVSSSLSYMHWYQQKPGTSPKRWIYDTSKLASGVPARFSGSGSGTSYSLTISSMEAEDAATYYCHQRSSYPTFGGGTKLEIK .
Response: 0.05
